Assay: Pharmacokinetic study, single i.p. dose, plasma LC-MS/MS
Assay type: in vivo, rat
Details: rat, plasma, ip, 10 mg/kg, rat plasma, single i.p. dose of 10 mg/kg; read-out: Vz/F (volume of distribution)
Each record here notes measured Vd/F.
experimental.readout: Vd/F (L/kg)

• CCC(=O)c1ccc(OCCCCCCCCN2CCN(c3ccncc3)CC2)cc1 = 513
• CCC(=O)c1ccc(OCCCCCCN2CCN(c3ccncc3)CC2)cc1 = 272

###

Biological target: UniProtKB Q9Y5N1
Assay: Intrinsic activity at H3R, Aequoscreen assay
Type: cell-based
pIC50: −log10 of the molar value.
experimental.readout: pIC50

• CCC(=O)c1ccc(OCCCCCCN2CCN(c3ccncc3)CC2)cc1 = 8.83
• CCC(=O)c1ccc(OCCCCCCCCN2CCN(c3ccncc3)CC2)cc1 = 7.50

###

Each record here notes measured CL/F.
Experiment: Pharmacokinetic study, single i.p. dose, plasma LC-MS/MS
Type: in vivo, rat
Details: ip; rat plasma, single i.p. dose of 10 mg/kg; read-out: CLS/F (clearance) (converted)
experimental.readout: CL/F (mL/min/kg)

* CCC(=O)c1ccc(OCCCCCCCCN2CCN(c3ccncc3)CC2)cc1 | 2180
* CCC(=O)c1ccc(OCCCCCCN2CCN(c3ccncc3)CC2)cc1 | 1170

###

Each record here notes measured Tmax.
Test: Pharmacokinetic study, single i.p. dose, plasma LC-MS/MS
Type: in vivo, rat
Settings: ip; rat plasma, single i.p. dose of 10 mg/kg
experimental.readout: Tmax (min)

* CCC(=O)c1ccc(OCCCCCCCCN2CCN(c3ccncc3)CC2)cc1 [KSK-74] | 4.98
* CCC(=O)c1ccc(OCCCCCCN2CCN(c3ccncc3)CC2)cc1 [KSK-60] | 4.98

###

Each record here notes measured IC50.
Target: H3 histamine receptor (Homo sapiens, UniProt Q9Y5N1)
Sequence (Q9Y5N1 whole entry): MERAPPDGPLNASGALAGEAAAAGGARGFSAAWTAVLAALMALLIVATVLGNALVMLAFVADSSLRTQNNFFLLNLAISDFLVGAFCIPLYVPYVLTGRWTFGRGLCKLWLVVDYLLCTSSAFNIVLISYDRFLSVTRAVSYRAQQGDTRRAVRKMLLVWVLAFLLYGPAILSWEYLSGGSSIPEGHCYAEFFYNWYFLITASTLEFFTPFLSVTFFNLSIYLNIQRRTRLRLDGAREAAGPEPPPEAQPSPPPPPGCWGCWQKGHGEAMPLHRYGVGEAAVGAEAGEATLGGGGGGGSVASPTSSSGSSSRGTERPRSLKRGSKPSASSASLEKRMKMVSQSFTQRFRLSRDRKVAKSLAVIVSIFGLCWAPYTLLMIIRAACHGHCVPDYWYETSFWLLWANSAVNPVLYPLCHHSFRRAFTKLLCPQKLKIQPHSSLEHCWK
Assay: Intrinsic activity at H3R, LANCE Ultra cAMP assay
Type: cell-based
Procedure: Intrinsic activity studies were performed using two methods, Aequoscreen and LANCE Ultra cAMP assays, according to the manufacturer of the ready-to-use cells with stable expressions of the H3 histamine receptor (Perkin Elmer). The assay is based on the competition between the europium (Eu) chelate-labeled cAMP tracer and sample cAMP for binding sites on cAMP-specific monoclonal antibodies labeled with the ULight dye.
experimental.readout: IC50 (nM)

* CCC(=O)c1ccc(OCCCCCCCCN2CCN(c3ccncc3)CC2)cc1 | 23.2
* CCC(=O)c1ccc(OCCCCCCN2CCN(c3ccncc3)CC2)cc1 | 0.78

###

Each record here notes measured Cmax.
Assay: Pharmacokinetic study, single i.p. dose, plasma LC-MS/MS
Assay type: in vivo, rat
Conditions: ip; rat plasma, single i.p. dose of 10 mg/kg, n = 3, non-compartmental
experimental.readout: Cmax

- CCC(=O)c1ccc(OCCCCCCN2CCN(c3ccncc3)CC2)cc1: 109 ng/mL
- CCC(=O)c1ccc(OCCCCCCCCN2CCN(c3ccncc3)CC2)cc1: 105 ng/mL

###

Assay: Pharmacokinetic study, single i.p. dose, plasma LC-MS/MS
Format: in vivo, rat
Settings: ip; rat plasma, single i.p. dose of 10 mg/kg; read-out: MRT (mean residence time)
experimental.readout: MRT (h)

* CCC(=O)c1ccc(OCCCCCCCCN2CCN(c3ccncc3)CC2)cc1 [KSK-74] | 2.45
* CCC(=O)c1ccc(OCCCCCCN2CCN(c3ccncc3)CC2)cc1 [KSK-60] | 3.28
